Cited source: paper PMC7541222

Tgt: T1, FGF21 (Homo sapiens (assumed), UniProt Q9NSA1)
T1 construct: FGF21, unrelated antigen used as negative control
Assay details: ELISA; wells of 96-well plates coated with EGFR protein fragment or unrelated antigens; purified sdAbs added; protein A-HRP, TMB, absorbance at 450 nm
Test settings: both partners purified

{"columns": ["Binder", "binding result"],
 "data": [
  ["anti-EGFR single-domain antibody aEG1B4 (purified) (VHH, fully human VH domain on the V3-23/D47 framework with diversified CDR1-3; Fully human VH-only single-domain antibody (about 15 kDa), selected from the Source BioScience human domain antibody library; subcloned NcoI/NotI into pET22b(+); also called anti-EGFR sdAb; source: E. coli BL21 (DE3), pET22b(+), purified (Ni-NTA)) VHH: QVQLLESGGGLVQPGGSLRLSCAASGVNVSNEVMSWVRQAPGKGLEWVSTIANHSGSTYYADSVKGRFTISRDNSKNTLYLQMNSLRAEDTAVYYCATLYSGATKQLEYWGQGTLVTVSS", "no binding"],
  ["anti-EGFR single-domain antibody aEG6B2 (purified) (VHH, fully human VH domain on the V3-23/D47 framework with diversified CDR1-3; Fully human VH-only single-domain antibody (about 15 kDa), selected from the Source BioScience human domain antibody library; subcloned NcoI/NotI into pET22b(+); also called anti-EGFR sdAb; source: E. coli BL21 (DE3), pET22b(+), purified (Ni-NTA)) VHH: QVQLLESGGGLVQPGGSLRLSCAASGFNVNPKYMTWVRQAPGKGLEWVSSIRSPGGSTYYADSVKGRFTISRDNSKNTLYLQMNSLRAEDTAVYYCASVSRDEKYMRFWGQGTLVTVSS", "no binding"]
]}
